tested on: barnyardgrass (Echinochloa crus-galli); test: Test A pre-/postemergence plant response; type: in vivo; conditions: Postemergence, 125 g ai/ha; 0 to 100 scale where 0 is no effect and 100 is complete control
Rule: measured Plant response rating, Barnyardgrass below 80 gets Yes; anything equal to or greater than 80 gets No.

| compound | system-tested | class-label |
| --- | --- | --- |
| CCCn1c(-c2cccc(C)c2)ncc(C(=O)C2=C(O)CCCC2=O)c1=O | barnyardgrass (Echinochloa crus-galli) | No |
| COc1ccc(-n2c(-c3cccc(C)c3)ncc(C(=O)C3=C(O)CCCC3=O)c2=O)cc1 | barnyardgrass (Echinochloa crus-galli) | Yes |
| O=C1CCCC(O)=C1C(=O)c1cnc(-c2cc(F)cc(F)c2)n(CC2CCCCC2)c1=O | barnyardgrass (Echinochloa crus-galli) | Yes |
| O=C(C1=C(O)C2CCC(C2)C1=O)c1cnc(-c2ccccc2)n(C2CCOCC2)c1=O (stereo not drawn) | barnyardgrass (Echinochloa crus-galli) | No |
| CCc1ccc(-n2c(-c3cccc(C)c3)ncc(C(=O)C3=C(O)CCCC3=O)c2=O)cc1 | barnyardgrass (Echinochloa crus-galli) | Yes |
| C#Cc1ccc(-c2ncc(C(=O)C3=C(O)C4CCC(C4)C3=O)c(=O)n2C2CCCCC2)cc1 (stereo not drawn) | barnyardgrass (Echinochloa crus-galli) | Yes |
| CCCn1c(-c2cc(F)cc(F)c2)ncc(C(=O)C2=C(O)CC(C)(C)CC2=O)c1=O | barnyardgrass (Echinochloa crus-galli) | No |
| COCCn1c(-c2cccc(Br)c2)ncc(C(=O)C2=C(O)CCCC2=O)c1=O | barnyardgrass (Echinochloa crus-galli) | Yes |
| COCCn1c(-c2ccn(C)n2)ncc(C(=O)C2=C(O)CCCC2=O)c1=O | barnyardgrass (Echinochloa crus-galli) | Yes |

Lab note: next compound to report on.
Q. Threshold test, Plant response rating, Barnyardgrass < 80: O=C1CCCC(O)=C1C(=O)c1cnc(-c2ccccc2)n(C2CC[S+]([O-])CC2)c1=O (mixture of isomers)
A. No
